- system_under_test: human GALR3 receptor (Homo sapiens)
- Construct: expressed in transfected cells
- Sequence (O60755 whole entry): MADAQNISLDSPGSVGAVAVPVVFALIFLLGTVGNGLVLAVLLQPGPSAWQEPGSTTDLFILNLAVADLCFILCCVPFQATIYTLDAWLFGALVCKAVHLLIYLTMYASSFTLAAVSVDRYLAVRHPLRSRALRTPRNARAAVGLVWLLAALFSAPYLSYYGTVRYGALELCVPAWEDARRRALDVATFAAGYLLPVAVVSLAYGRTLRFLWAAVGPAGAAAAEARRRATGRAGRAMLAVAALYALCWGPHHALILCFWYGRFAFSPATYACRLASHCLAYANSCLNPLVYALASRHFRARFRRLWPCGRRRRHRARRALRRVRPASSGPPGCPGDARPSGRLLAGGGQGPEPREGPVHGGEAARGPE
- experiment_summary: Binding affinity at the human GALR3 receptor
- reported_conditions: Table 3b; read-out: hGALR3 Ki
recorded_metric: Ki

Lookup: Which measured Ki belongs to 2-(3,4-DIFLUOROPHENYL)4,5-DIHYDROIMIDAZOLE-1-CARBOXYLIC ACID {3-[4-PHENYL-4-(4-BROMO-5-METHYLTHIOPNEN-2-YL)]-PROPYL}-AMIDE [Example 19] , tested on human GALR3 receptor (Homo sapiens)?
Found: > 50 µM

---

Quick reference for pKi among some molecules
- system_under_test: human GALR1 receptor (Homo sapiens, UniProt P47211)
- Construct: expressed in transfected cells
- Sequence (P47211 whole entry): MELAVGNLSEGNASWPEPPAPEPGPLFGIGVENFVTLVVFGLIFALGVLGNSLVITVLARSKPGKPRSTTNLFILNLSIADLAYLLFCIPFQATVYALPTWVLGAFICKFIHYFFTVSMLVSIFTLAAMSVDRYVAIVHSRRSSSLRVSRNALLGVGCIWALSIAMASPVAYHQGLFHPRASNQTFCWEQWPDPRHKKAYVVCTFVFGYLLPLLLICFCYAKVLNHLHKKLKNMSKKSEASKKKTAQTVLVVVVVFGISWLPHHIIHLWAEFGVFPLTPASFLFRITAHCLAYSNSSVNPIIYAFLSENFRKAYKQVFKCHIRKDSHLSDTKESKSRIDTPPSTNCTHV
- experiment_summary: Binding affinity at the human GALR1 receptor
- reported_conditions: Table 3b; read-out: hGALR1 Ki
- Excerpt: The design of such compounds can be optimized by determining their binding affinity at the recombinant MCH1, NPY1, NPY2, Gal1, Gal2, Gal3, and 5HT2C receptors. […]
pKi: −log10 of the molar value.

Lookup: Which pKi is reported for this molecule? COCC1=C(C(=O)OC)C(c2ccc(F)c(F)c2)N(C(=O)NCCCN2CCC(c3cccc(NC(C)=O)c3)CC2)C(=O)N1 (single isomer, unassigned; (-))
Found: < 4.30

Lookup: Which pKi is reported for this molecule? COCC1=C(C(=O)OC)C(c2ccc(F)c(F)c2)N(C(=O)NCCCN2CC=C(c3cccc(NC(C)=O)c3)CC2)C(=O)N1 (stereo not drawn)
Found: < 4.30

Lookup: Which pKi is reported for this molecule? COCC1=C(C(=O)OC)C(c2ccc(F)c(F)c2)N(C(=O)NCCCN2CCC(c3cccc4ccccc34)CC2)C(=O)N1 (single isomer, unassigned; (+))
Found: < 4.30

---

- system_under_test: human NPY1 receptor (Homo sapiens)
- Construct: expressed in transfected cells
- Sequence (P25929 whole entry): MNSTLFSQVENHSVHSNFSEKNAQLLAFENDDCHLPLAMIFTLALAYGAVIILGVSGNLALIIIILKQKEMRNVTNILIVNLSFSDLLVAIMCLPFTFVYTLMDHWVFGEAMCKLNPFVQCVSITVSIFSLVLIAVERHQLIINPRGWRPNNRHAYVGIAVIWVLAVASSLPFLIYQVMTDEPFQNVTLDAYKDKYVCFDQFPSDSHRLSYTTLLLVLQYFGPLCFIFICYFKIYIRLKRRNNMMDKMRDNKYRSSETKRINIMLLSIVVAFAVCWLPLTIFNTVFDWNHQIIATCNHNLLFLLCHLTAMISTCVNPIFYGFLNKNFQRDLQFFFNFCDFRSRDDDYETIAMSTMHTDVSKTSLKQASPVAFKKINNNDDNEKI
- experiment_summary: Binding affinity at the human NPY1 receptor
- reported_conditions: Table 3a; read-out: hMPY1 Ki
Structures can show the parent of a compound that is named as a salt.
recorded_metric: Ki

Worked set:
compound: Cc1cc(O)cc(O)c1/C=N/c1ccc(-c2cn3ccccc3n2)cc1
system_under_test: human NPY1 receptor (Homo sapiens)
recorded_metric: Ki
reported: > 50 µM
//
compound: Fc1ccc(C(c2ccc(F)cc2)N2CCN(C/C=C/c3ccccc3)CC2)cc1
system_under_test: human NPY1 receptor (Homo sapiens)
recorded_metric: Ki
reported: > 50 µM
//
compound: CN1CN(c2ccccc2)C2(CCN(CCCC(=O)c3ccc(F)cc3)CC2)C1=O
system_under_test: human NPY1 receptor (Homo sapiens)
recorded_metric: Ki
reported: > 50 µM
//
compound: CCCCN(CCCC)c1ccc(CNC[C@H]2CC[C@H](NC(=O)c3cccc4ccccc34)CC2)cc1
system_under_test: human NPY1 receptor (Homo sapiens)
recorded_metric: Ki
reported: 9.6 µM
//
compound: COCC1=C(C(=O)OC)C(c2ccc(F)c(F)c2)N(C(=O)NCCCN2CCC(c3cccc(NC(C)=O)c3)CC2)C(=O)N1 (single isomer, unassigned; (-))
system_under_test: human NPY1 receptor (Homo sapiens)
recorded_metric: Ki
reported: > 50 µM
//
compound: COCC1=C(C(=O)OC)[C@H](c2ccc(F)c(F)c2)N(C(=O)NCCCN2CCC(c3cccc(NC(C)=O)c3)CC2)C(=O)N1
system_under_test: human NPY1 receptor (Homo sapiens)
recorded_metric: Ki
reported: > 50 µM
//
compound: CCCCN(CCCC)c1ccc(CN2CCC(CNC(=O)N3C(=O)NC(C)=C(C(=O)OC)C3c3ccc4nonc4c3)CC2)cc1 (centres unmarked)
system_under_test: human NPY1 receptor (Homo sapiens)
recorded_metric: Ki
reported: 6.67 µM

Lookup: Which Ki is reported for this compound? CCC1=C(C(=O)O)C(c2ccc(F)c(F)c2)N(C(=O)NCCCN2CCC3(CC2)OCc2ccccc23)C(=O)N1 (single isomer, unassigned; (+)) [Example 4, HYDROCHLORIDE]
Found: > 50 µM

---

- system_under_test: human Alpha-1a Adrenergic receptor (Homo sapiens, UniProt P35348)
- Construct: expressed in transfected cells
- Sequence (P35348 whole entry): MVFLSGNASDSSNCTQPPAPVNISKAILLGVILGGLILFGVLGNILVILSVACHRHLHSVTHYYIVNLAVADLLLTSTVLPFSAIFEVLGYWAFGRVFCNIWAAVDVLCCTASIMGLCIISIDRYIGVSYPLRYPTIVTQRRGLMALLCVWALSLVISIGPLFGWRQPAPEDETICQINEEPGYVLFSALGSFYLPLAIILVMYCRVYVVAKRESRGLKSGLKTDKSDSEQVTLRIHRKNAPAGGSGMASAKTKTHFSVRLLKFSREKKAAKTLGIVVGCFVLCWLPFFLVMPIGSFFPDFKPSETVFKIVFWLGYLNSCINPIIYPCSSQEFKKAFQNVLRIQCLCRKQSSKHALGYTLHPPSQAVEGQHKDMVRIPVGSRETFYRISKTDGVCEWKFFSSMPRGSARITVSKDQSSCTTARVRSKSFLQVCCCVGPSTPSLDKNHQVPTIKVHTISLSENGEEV
- experiment_summary: Binding affinity at the human alpha-1A adrenergic receptor
Where a name gives a salt, the structure may show the parent alone.
recorded_metric: Ki (µM)
Give just the number in µM; leave the unit off.

molecule: COC(=O)C1=C(C)NC(=O)N(C(=O)NCCCN2CCC3(CC2)OCc2ccccc23)C1c1ccc2nonc2c1 (single isomer, unassigned) [Example 18, HYDROCHLORIDE]
display_unit: µM
Ki: 0.0017

Alright, here's another molecule for you.
Lookup: Which Ki is reported for this molecule? CC(C)C(=O)Nc1cccc(C2CCN(CC[C@@H](Oc3ccccc3)c3ccccc3)CC2)c1 [Example 112]
Found: 0.055

---

- system_under_test: human Dopamine D2 receptor (Homo sapiens, UniProt P14416)
- Construct: purchased BioSignal, Inc. (Montreal, Canada)
- Sequence (P14416 whole entry): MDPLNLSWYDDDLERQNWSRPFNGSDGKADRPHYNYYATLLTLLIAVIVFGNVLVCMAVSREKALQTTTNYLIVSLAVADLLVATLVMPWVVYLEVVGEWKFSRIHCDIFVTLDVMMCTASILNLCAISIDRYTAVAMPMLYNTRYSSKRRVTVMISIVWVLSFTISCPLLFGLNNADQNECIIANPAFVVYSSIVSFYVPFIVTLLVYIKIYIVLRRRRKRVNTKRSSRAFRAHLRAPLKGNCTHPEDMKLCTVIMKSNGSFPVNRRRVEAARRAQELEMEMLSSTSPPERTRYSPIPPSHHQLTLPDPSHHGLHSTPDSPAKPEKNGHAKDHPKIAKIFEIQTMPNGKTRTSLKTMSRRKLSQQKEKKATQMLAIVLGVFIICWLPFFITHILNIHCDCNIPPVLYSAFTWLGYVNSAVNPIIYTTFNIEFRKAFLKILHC
- experiment_summary: Binding affinity at the human dopamine D2 receptor
- reported_conditions: Table 3c; read-out: hD2 Ki
recorded_metric: pKi
// pKi here means minus log10 of the molar concentration (mol/L)

Worked set:
smi: CC(C)C(=O)Nc1cccc(C2CCN(CCCC(c3ccc(F)cc3)c3ccc(F)cc3)CC2)c1
pKi: 7.37

smi: CC(=O)c1ccccc1O[C@@H](CCN1CCC(c2cccc(NC(=O)C(C)C)c2)CC1)c1ccccc1
pKi: 5.98

Lookup: Which pKi is reported for this compound? `CC(C)C(=O)Nc1cccc(C2CCN(CC[C@H](Oc3ccc(C#N)cc3)c3ccccc3)CC2)c1`
Found: 6.41

Lookup: Which pKi is reported for this compound? `CC(=O)Nc1cccc(C2CCN(CCCNC(=O)N3C(=O)OC[C@@H]3c3cc(F)cc(F)c3)CC2)c1`
Found: 4.38

---

Quick reference for Ki among some molecules
- system_under_test: rat MCH1 receptor (Rattus norvegicus, UniProt P97639)
- Construct: expressed in transfected cells
- Sequence (P97639 whole entry): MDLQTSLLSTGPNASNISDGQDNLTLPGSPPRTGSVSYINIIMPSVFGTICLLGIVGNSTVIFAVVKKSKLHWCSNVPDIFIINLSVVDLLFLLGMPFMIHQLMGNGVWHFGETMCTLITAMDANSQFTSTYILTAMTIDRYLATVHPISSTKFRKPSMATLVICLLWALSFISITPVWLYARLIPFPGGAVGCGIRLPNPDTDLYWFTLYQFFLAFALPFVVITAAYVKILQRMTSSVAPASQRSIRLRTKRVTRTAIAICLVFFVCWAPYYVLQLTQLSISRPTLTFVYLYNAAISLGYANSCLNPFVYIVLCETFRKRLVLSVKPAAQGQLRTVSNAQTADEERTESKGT
- experiment_summary: Binding affinity (Ki) at the rat MCH1 receptor
- reported_conditions: Examples 38-141; read-out: Ki (nM) rMCH1
A complete answer gives the number and then names the unit.

Worked set:
molecule: CC(=O)Nc1cccc(C2CCN(CCCNC(=O)N3C(=O)O[C@H](C)C3c3ccc(F)c(F)c3)CC2)c1 (stereo partly shown) [Example 131]
Ki: 11.8 nM

molecule: CC(C)C(=O)Nc1cccc(C2CCN(CCCC(=O)c3ccc(Cl)cc3)CC2)c1 [Example 66]
Ki: 2.8 nM

molecule: COc1ccc(C(C)=O)cc1O[C@@H](CCN1CCC(c2cccc(NC(=O)C(C)C)c2)CC1)c1ccccc1 [Example 119]
Ki: 22.4 nM

molecule: CCC(=O)Nc1cccc(C2CCN(CCCNC(=O)N3C(=O)NC(COC)=C(C(=O)OC)[C@@H]3c3ccc(F)c(F)c3)CC2)c1 [Example 41]
Ki: 0.04 nM

molecule: COc1cccc(CC(=O)Nc2cccc(C3CCN(CCCC(=O)c4ccc(C)c(C)c4)CC3)c2)c1 [Example 61]
Ki: 14.2 nM

molecule: CCCC(=O)Nc1cccc(C2CCN(CCCNC(=O)N3C(=O)NC(COC)=C(C(=O)OC)[C@@H]3c3ccc(F)c(F)c3)CC2)c1 [Example 44]
Ki: 0.09 nM

Alright, here's another molecule for you.
Lookup: Which Ki is reported for this molecule? COCC(=O)Nc1cccc(C2CCN(CCCC(=O)c3ccc(Cl)cc3)CC2)c1 [Example 70]
Found: 167 nM

---

- system_under_test: human Alpha-1a Adrenergic receptor (Homo sapiens, UniProt P35348)
- Construct: expressed in transfected cells
- experiment_summary: Binding affinity at the human alpha-1A adrenergic receptor
- reported_conditions: Table 3c; read-out: hAlpha-1a Ki
recorded_metric: pKi
// pKi here means minus log10 of the molar concentration (mol/L)

Worked set:
compound: COc1cccc(CC(=O)Nc2cccc(C3CCN(CCCC(=O)c4ccc(C)c(C)c4)CC3)c2)c1
system_under_test: human Alpha-1a Adrenergic receptor (Homo sapiens, UniProt P35348)
pKi: 8.04
--
compound: COc1ccc(O[C@@H](CCN2CCC(c3cccc(NC(=O)C(C)C)c3)CC2)c2ccccc2)cc1
system_under_test: human Alpha-1a Adrenergic receptor (Homo sapiens, UniProt P35348)
pKi: 6.79
--
compound: COCC1=C(C(=O)OC)[C@H](c2ccc(F)c(F)c2)N(C(=O)NCCCN2CCC(c3cccc(NC(=O)C(C)C)c3)CC2)C(=O)N1
system_under_test: human Alpha-1a Adrenergic receptor (Homo sapiens, UniProt P35348)
pKi: 7.66
--
compound: COc1cccc(CC(=O)Nc2cccc(C3CCN(CCCC(=O)c4ccc(OC)cc4OC)CC3)c2)c1
system_under_test: human Alpha-1a Adrenergic receptor (Homo sapiens, UniProt P35348)
pKi: 6.90
--
compound: CC(C)C(=O)Nc1cccc(C2CCN(CCCC(c3ccc(F)cc3)c3ccc(F)cc3)CC2)c1
system_under_test: human Alpha-1a Adrenergic receptor (Homo sapiens, UniProt P35348)
pKi: 7.74
--
compound: COc1ccc(O[C@H](CCN2CCC(c3cccc(NC(=O)C(C)C)c3)CC2)c2ccccc2)cc1OC
system_under_test: human Alpha-1a Adrenergic receptor (Homo sapiens, UniProt P35348)
pKi: 6.34
--
compound: COC(CCN1CCC(c2cccc(NC(=O)C(C)C)c2)CC1)c1ccc(Cl)cc1 (stereo not drawn)
system_under_test: human Alpha-1a Adrenergic receptor (Homo sapiens, UniProt P35348)
pKi: 6.27
--
compound: CC(C)C(=O)Nc1cccc(C2CCN(CC[C@H](Oc3cc(F)ccc3F)c3ccccc3)CC2)c1
system_under_test: human Alpha-1a Adrenergic receptor (Homo sapiens, UniProt P35348)
pKi: 6.29
--
compound: CC(C)C(=O)Nc1cccc(C2CCN(CC[C@H](Oc3ccccc3F)c3ccccc3)CC2)c1
system_under_test: human Alpha-1a Adrenergic receptor (Homo sapiens, UniProt P35348)
pKi: 6.65
--
compound: O=C(Cc1ccccc1)Nc1cccc(C2CCN(CCCC(=O)c3ccc(Cl)cc3)CC2)c1
system_under_test: human Alpha-1a Adrenergic receptor (Homo sapiens, UniProt P35348)
pKi: 7.24

Lookup: Which pKi is reported for this compound? `COc1cccc(CC(=O)Nc2cccc(C3CCN(CCCC(=O)c4ccc(Cl)cc4)CC3)c2)c1`
Found: 7.21

Lookup: Which pKi is reported for this compound? `CC(C)C(=O)Nc1cccc(C2CCN(CC[C@@H](Oc3ccc(Cl)c(Cl)c3)c3ccccc3)CC2)c1`
Found: 6.90

Lookup: Which pKi is reported for this compound? CC(=O)Nc1cccc(C2CCN(CCCNC(=O)N3C(=O)O[C@H](C)C3c3ccc(F)c(F)c3)CC2)c1 (stereo partly drawn)
Found: 5.61
